Consider the following compounds; for each one, report its IC50.
# Tested on: AMO-1 human multiple myeloma tumor cell line
# experimental_details: AMO-1 cell viability assay (CellTiter-Glo, 24 hours)
# Assay type: cell-based
# test_context: Homo sapiens, AMO1, 24 h, read-out: AMO-1 Viability IC50 (μM, 10% FBS), 10% FBS, 24 hours of compound treatment
I only need the number, in µM, no unit after it.

Looking up "Cc1c(Cl)c2c(Cl)c(C)c1-c1c(-c3ccc(F)cc3)sc3ncnc(c13)O[C@@H](C(=O)O)Cc1cc(ccc1OCc1ccnc(N3CCC(C)(N4CCOCC4)CC3)n1)OC[C@@H](CN1CCN(C)CC1)O2" , I found its IC50 recorded as 0.00178

Noted for "Cc1c(Cl)c2c(Cl)c(C)c1-c1c(-c3ccc(F)cc3)sc3ncnc(c13)O[C@@H](C(=O)O)Cc1cc(ccc1OCc1ccnc(N3C[C@H]4C[C@@H](C3)[C@H]4O)n1)OC[C@@H](CN1CCN(C)CC1)O2" : its IC50 reads 0.002

Reported IC50 for "Cc1c(Cl)c2c(Cl)c(C)c1-c1c(-c3ccc(F)cc3)sc3ncnc(c13)O[C@@H](C(=O)O)Cc1cc(ccc1OCc1ccnc(-c3ccc(OCCN4CC5(COC5)C4)cc3)n1)OC[C@@H](CN1CCN(C)CC1)O2" was 0.00353

Noted for "COCC(COC)Oc1ccc(-c2nccc(COc3ccc4cc3C[C@H](C(=O)O)Oc3ncnc5sc(-c6ccc(F)cc6)c(c35)-c3c(C)c(Cl)c(c(Cl)c3C)O[C@H](CN3CCN(C)CC3)CO4)n2)cc1" : its IC50 reads 0.000306

The recorded IC50 for entry "COCCOCCN(CCOCCOC)c1nccc(COc2ccc3cc2C[C@H](C(=O)O)Oc2ncnc4sc(-c5ccc(F)cc5)c(c24)-c2c(C)c(Cl)c(c(Cl)c2C)O[C@H](CN2CCN(C)CC2)CO3)n1" equals 0.00343

Input "COCCOCCOCCO[C@H]1CC[C@@H](c2nccc(COc3ccc4cc3C[C@H](C(=O)O)Oc3ncnc5sc(-c6ccc(F)cc6)c(c35)-c3c(C)c(Cl)c(c(Cl)c3C)O[C@H](CN3CCN(C)CC3)CO4)n2)CC1" . Output IC50: 0.000263

Lab note: "Cc1c(Cl)c2c(Cl)c(C)c1-c1c(-c3ccc(F)cc3)sc3ncnc(c13)O[C@@H](C(=O)O)Cc1cc(ccc1OCc1ccnc(C3(COCCOC[C@H]4COCCO4)CCC3)n1)OC[C@@H](CN1CCN(C)CC1)O2" gave IC50 of 0.000193

Quick note, IC50 for "COCCOCCOC[C@H]1CC[C@H](c2nccc(COc3ccc4cc3C[C@H](C(=O)O)Oc3ncnc5sc(-c6ccc(F)cc6)c(c35)-c3c(C)c(Cl)c(c(Cl)c3C)O[C@H](CN3CCN(C)CC3)CO4)n2)CC1" landed at 0.000116

Record "Cc1c(Cl)c2c(Cl)c(C)c1-c1c(-c3ccc(F)cc3)sc3ncnc(c13)O[C@@H](C(=O)O)Cc1cc(ccc1OCc1ccnc(-c3ccc(OC[C@H]4COCCN4C)cc3)n1)OC[C@@H](CN1CCN(C)CC1)O2" , field IC50: 0.000399
